# target: T1, recombinant human IL-27 (human, UniProt Q14213 21-229; Q8NEV9 29-243)
# T1 construct: Bought from R&D Systems (Cat. 2526-IL); also called hIL-27; rhIL-27
# T1 sequence 1: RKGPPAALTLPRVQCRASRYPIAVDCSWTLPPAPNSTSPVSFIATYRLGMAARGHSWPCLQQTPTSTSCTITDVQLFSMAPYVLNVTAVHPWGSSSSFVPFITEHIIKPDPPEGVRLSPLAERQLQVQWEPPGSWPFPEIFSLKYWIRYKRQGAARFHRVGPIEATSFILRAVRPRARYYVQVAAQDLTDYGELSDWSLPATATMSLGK
# T1 sequence 2: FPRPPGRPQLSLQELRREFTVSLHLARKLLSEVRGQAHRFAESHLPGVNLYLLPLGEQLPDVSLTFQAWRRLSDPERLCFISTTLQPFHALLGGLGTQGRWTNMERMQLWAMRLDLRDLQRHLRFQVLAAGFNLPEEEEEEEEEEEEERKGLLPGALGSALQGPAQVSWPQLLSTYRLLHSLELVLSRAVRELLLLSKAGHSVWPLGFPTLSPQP
# experiment notes: SPR, hIL-27 on CM5 chip, bivalent analyte model (ka1)
assay metric: kon (M⁻¹ s⁻¹)
Unit M⁻¹ s⁻¹ implied. Number only.

Use the examples below as a reference point.
Input Ab7.10 (antibody, human IgG1, kappa, V domains shown, human IgG1/kappa) VH: EVQLVESGGGLVQPGGSLRLSCAASGFTFTSYSMSWVRQAPGKGLEWVAYISYDGGSAYYPDTVKGRFTISRDNSKNTLYLQMSSLKSEDTAMYYCARHGDYDDDDAMDYWGQGTLVTVSS VL: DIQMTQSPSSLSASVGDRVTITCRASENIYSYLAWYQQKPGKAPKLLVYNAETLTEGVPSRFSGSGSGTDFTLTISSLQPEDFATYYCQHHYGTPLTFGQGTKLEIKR , output reported kon.
600000

Give kon for the following binder: Ab7.14 (antibody, human IgG1, kappa, V domains shown, human IgG1/kappa) VH: EVKLVESGGGLVQPGGSLRLSCAASGFTFTSYSMSWVRQAPGKGLEWVAYISYDGGSAYYPDTVKGRFTISRDNSKKTLYLQMNSLRAEDTAVYYCARHGDYDDDDAMDYWGQGTLVTVSS VL: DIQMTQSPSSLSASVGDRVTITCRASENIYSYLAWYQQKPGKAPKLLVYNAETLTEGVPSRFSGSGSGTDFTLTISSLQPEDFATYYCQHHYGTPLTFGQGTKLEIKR
700000

New cases:
Could you please provide reported kon for Ab7.2 (antibody, human IgG1, kappa, V domains shown, human IgG1/kappa) VH: EVKLVESGGGLVQPGGSLKLFCAASGFTFTSYSMSWVRQTPEKRLEWVAYISYDGGSAYYPDTVKGRFSISRDNAKKTLYLQMSSLKSEDTAMYYCARHGDYDDDDAMDYWGQGTSVTVSS VL: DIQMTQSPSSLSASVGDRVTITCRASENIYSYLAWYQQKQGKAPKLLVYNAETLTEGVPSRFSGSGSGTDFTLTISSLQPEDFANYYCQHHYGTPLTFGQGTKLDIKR ? Thanks!
700000
